Data provenance is patent US20110318339A1.

Attribute: ELISA absorbance at 450 nm
Target: T1, recombinant human DLL4 (Cat# 1506-D4/CF, R&D Systems) (human, UniProt Q9NR61 27-529)
T1 construct: Bought protein; also called hDLL4; rHuman DLL4
Test: ELISA, DLL4 coated, Fab 6.67 nM
Could you give the number and then its unit, please?

1) Fab VH1-46_IGHD6-6*01_IGHJ1*01 S102A/S103P/S104F/H111F N52L/S54T/G56H & L6_IGKJ1*01 S28N/S30D/S31H S52L/A55G (Fab, V domains shown, Fab made in E. coli: VH on CH1 with His6 and Flag tags (Plasmid A), VL on kappa CL (Plasmid C); also called H: APFF LTH & L: NDH LG) VH: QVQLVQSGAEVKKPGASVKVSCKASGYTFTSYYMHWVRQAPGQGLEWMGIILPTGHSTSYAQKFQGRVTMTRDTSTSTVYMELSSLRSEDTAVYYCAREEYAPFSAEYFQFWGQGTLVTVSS VL: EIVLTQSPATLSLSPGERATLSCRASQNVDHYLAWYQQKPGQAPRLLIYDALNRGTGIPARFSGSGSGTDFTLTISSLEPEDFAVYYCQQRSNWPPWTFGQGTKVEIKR | 0.88 A450

Let us move to another entry and its ELISA absorbance at 450 nm.
Item: Fab VH1-46_IGHD6-6*01_IGHJ1*01 S102A/S103P/S104F/H111F N52L/S54T/G56H & L6_IGKJ1*01 S28N/S30D/S31H S52L/A55S (Fab, V domains shown, Fab made in E. coli: VH on CH1 with His6 and Flag tags (Plasmid A), VL on kappa CL (Plasmid C); also called H: APFF LTH & L: NDH LS) VH: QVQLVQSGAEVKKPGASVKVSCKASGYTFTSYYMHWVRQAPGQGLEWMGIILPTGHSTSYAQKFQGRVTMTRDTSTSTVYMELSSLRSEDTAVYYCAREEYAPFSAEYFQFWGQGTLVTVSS VL: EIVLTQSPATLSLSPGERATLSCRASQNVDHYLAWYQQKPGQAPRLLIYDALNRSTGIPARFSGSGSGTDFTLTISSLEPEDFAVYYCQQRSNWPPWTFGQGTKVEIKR | ELISA absorbance at 450 nm: 0.916 A450
